# Tested on: TLR7
property.name: pIC50
One number for each entry, as −log10 of the molar value.

Dear colleague, I am looking for the recorded pIC50 of the following compound: CC(C)(C)c1nc2c3cc[nH]c(=O)c3c3cc(F)ccc3c2[nH]1 [JAK inhibitor 1] 6.26

* * *

# Tested on: ROS production by neutrophils in human whole blood
# assay.text: Phagocyte oxidative burst (Phagoburst), neutrophil ROS production in whole blood
# Format: cell-based
# experimental.setup: sheet 'IC50 values'; whole blood, opsonized bacteria, 10 min; corrected for plasma protein binding; unit inferred; Assay control = DPI; read-out: PB_Neut IC50
property.name: IC50 (nM)
Give bare numbers, in nM.

Dear colleague, I am looking for the recorded IC50 of the following molecule: CC(C)(C)c1nc2c3cc[nH]c(=O)c3c3cc(F)ccc3c2[nH]1 354
